# TESTED_ON: human GPR17 (Homo sapiens, UniProt Q13304)
# Construct: HA; expressed in transfected cells
# Sequence (Q13304 29-367): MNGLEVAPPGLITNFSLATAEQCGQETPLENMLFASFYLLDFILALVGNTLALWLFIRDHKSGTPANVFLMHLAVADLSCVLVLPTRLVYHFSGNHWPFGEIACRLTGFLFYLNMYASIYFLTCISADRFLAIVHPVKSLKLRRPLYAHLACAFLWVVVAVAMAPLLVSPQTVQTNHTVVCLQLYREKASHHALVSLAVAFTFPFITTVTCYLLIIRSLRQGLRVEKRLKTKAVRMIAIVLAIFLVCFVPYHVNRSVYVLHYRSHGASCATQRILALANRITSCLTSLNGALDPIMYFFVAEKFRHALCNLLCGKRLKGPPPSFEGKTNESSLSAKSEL
# TEST_SUMMARY: [35S]GTPγS binding assay
# Assay type: biochemical
# COND: standard LTC4 50 nM set to 100% (¶ compounds)
% Emax (ratio vs Emax of the standard) overview
PROPERTY_NAME: % Emax (ratio vs Emax of the standard) (%)

COc1ccc(-n2c(SCC(=O)Nc3cc(C(C)(C)C)no3)nnc2-c2ccccc2OC)cc1 [Compound 11]; 95.3
CCOc1ccc(-n2c(SCC(=O)Nc3ccc4c(c3)OCCO4)nnc2-c2ccccc2Cl)cc1 [Compound 13]; 100.2
Cc1cccc(NC(=O)CN2C(=O)CC(c3ccccc3)=Nc3ccccc32)c1C [Compound 18]; 104.6
COc1ccccc1-c1nnc(SCC(=O)Nc2ncc3c(n2)CC(C)(C)CC3=O)[nH]1 [Compound 16]; 99.0
COc1ccccc1-c1nnc(SCC(=O)Nc2nccs2)[nH]1 [Compound 17]; 96.6
COc1ccccc1-c1nnc(SCC(=O)Nc2ncc3c(n2)CCCC3=O)[nH]1 [Compound 15]; 97.23
COc1ccc(-c2nnc(SCC(=O)Nc3ncc(Cc4ccc(Cl)cc4)s3)n2-c2ccccc2)cc1OC [Compound 14]; 98.8

====

# TEST_SUMMARY: In vivo mouse DMPK study, single 1 mg/kg subcutaneous dose
# COND: male, CD1, mouse, plasma, sc, 1 mg/kg, 1.00 h; 1 mg/kg s.c.; read-out: Plasma concentration, individual mice
PROPERTY_NAME: concentration at 1 h (ng/mL)

Cc1cccc(NC(=O)CN2C(=O)CC(c3ccccc3)=Nc3ccccc32)c1C [Compound 18]; 20.7

====

# TEST_SUMMARY: In vivo mouse DMPK study, single 1 mg/kg subcutaneous dose
# COND: mouse, sc; plasma; 1 mg/kg s.c. single dose; CD1 male mice
Recorded measurements of Cmax, one per entry
PROPERTY_NAME: Cmax (ng/mL)

Cc1cccc(NC(=O)CN2C(=O)CC(c3ccccc3)=Nc3ccccc32)c1C [Compound 18]; 26.4
Cc1ccc(-c2nnc(SCC(=O)Nc3nccs3)[nH]2)cc1 [Compound 9]; 72.3

====

# TEST_SUMMARY: In vivo mouse DMPK study, single 1 mg/kg subcutaneous dose
# COND: mouse, sc; plasma; 1 mg/kg s.c. single dose; CD1 male mice
PROPERTY_NAME: half-life (min)

Cc1cccc(NC(=O)CN2C(=O)CC(c3ccccc3)=Nc3ccccc32)c1C [Compound 18]; 45.5
Cc1ccc(-c2nnc(SCC(=O)Nc3nccs3)[nH]2)cc1 [Compound 9]; 65.4

====

# TESTED_ON: mGluR5 (Homo sapiens, UniProt P41594)
# Sequence (P41594 21-1212): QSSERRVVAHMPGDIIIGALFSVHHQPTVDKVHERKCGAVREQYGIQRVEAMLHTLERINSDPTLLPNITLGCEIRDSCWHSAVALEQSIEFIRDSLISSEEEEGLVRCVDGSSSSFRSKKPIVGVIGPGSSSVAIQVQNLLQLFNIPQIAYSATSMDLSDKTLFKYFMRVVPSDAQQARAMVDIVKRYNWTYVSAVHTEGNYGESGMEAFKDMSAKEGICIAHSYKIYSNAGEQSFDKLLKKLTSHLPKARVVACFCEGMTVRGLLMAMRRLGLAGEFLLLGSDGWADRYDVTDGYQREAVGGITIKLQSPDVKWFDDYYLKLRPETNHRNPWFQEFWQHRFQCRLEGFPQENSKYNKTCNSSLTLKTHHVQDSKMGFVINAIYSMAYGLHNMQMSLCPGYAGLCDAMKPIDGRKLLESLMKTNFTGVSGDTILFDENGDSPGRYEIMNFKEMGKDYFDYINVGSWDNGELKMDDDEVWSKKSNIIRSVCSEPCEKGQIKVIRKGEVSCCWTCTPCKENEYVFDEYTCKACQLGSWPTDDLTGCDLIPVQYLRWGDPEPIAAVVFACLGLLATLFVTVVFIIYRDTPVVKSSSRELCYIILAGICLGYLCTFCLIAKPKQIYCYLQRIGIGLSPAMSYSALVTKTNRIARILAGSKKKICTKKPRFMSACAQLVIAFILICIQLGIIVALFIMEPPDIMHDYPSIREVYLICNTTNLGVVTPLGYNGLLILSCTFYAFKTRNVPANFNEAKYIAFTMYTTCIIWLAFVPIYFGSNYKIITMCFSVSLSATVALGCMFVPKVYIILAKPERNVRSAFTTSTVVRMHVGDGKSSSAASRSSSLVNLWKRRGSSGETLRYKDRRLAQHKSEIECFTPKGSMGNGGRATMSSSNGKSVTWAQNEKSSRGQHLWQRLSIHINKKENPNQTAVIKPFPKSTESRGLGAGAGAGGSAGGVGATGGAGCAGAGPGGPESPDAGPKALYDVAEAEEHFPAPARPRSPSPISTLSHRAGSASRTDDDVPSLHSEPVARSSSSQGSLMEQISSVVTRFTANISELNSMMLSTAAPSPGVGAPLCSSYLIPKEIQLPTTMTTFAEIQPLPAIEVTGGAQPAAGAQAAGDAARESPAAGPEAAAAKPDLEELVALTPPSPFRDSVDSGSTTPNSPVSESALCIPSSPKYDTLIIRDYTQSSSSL
pKi: −log10 of the molar value.
PROPERTY_NAME: pKi

N[C@@H](Cn1oc(=O)[nH]c1=O)C(=O)O [L-Quisqualate, reference compound]; 7.85

====

# TEST_SUMMARY: Single dose time course study in plasma and brain, 10 mg/kg subcutaneous
# Type: in vivo, mouse
# COND: mouse, sc; brain; 10 mg/kg s.c. single dose; C57BL/6 male mice
PROPERTY_NAME: Tmax (min)

Cc1ccc(-c2nnc(SCC(=O)Nc3nccs3)[nH]2)cc1; 15

====

# TESTED_ON: human GPR17 (Homo sapiens)
# Construct: HA; expressed in transfected cells
# TEST_SUMMARY: [35S]GTPγS binding assay
# Assay type: biochemical
# COND: standard LTD4 50 nM set to 100% († compounds)
PROPERTY_NAME: % Emax (ratio vs Emax of the standard) (%)

Cc1nc2ccc(NC(=O)CSc3nnc(-c4ccccc4)[nH]3)cc2[nH]1 [Compound 8]; 100.3
Cc1cccc(-c2n[nH]c(SCC(=O)Nc3cccc4ccccc34)n2)c1 [Compound 7]; 104.8
Cc1cccc(-c2n[nH]c(SCC(=O)Nc3ccccc3)n2)c1 [Compound 10]; 98.3
Cn1c(SCC(=O)Nc2ccc(Cl)cc2)nnc1-c1ccc(NC(=O)c2ccccc2)cc1 [Compound 4]; 110.8
